B1: TRIB1 (parent)
chain: EIGTSDQIVPEYQEDSDISSFFC

# Variants of: B1
# experiment_description: protein stability index of a GFP-peptide fusion (GPS, HEK-293T) (PSI 1-6); higher = more stable;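 note: lentivirally expressed fusions sorted by FACS into six bins by GFP to DsRed ratio, PSI derived from sequencing read proportions per bin multiplied by bin number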
# reported_conditions: c terminus: native
So basically: protein stability index at 3 or higher? That is true. Lower than 3? That is false.

G3Y	false

Task item: Form field: protein stability index at least 3? Entry: `S19D`
Reply: false

Task item: Test whether the variant `I18T` records protein stability index of 3 or higher.
Reply: true

Task item: Identify whether the reported protein stability index of the following variant is 3 or greater: `E11L`
Reply: true

Task item: Tell me whether protein stability index is at least 3 here: `I2K`
Reply: false

Task item: Confirm if protein stability index reported for the variant `E1R` is 3 or above.
Reply: false

Task item: Decide: protein stability index of `E14T` >= 3?
Reply: false

Task item: Has `S16D` a recorded protein stability index greater than or equal to 3?
Reply: false

Task item: Please check the record `S20D` and state if its protein stability index is at or above 3.
Reply: false

Task item: Does protein stability index meet or surpass 3 for `E1S` ?
Reply: false

Task item: API: above_or_equal(metric=protein stability index, cutoff=3) for item `F22C`
Reply: true

Task item: Confirm if protein stability index reported for the variant `T4P` is 3 or above.
Reply: true

Task item: Answer whether protein stability index of `Q7G` is greater than or equal to 3.
Reply: true

Origin of the recorded values: the supplement of paper PMC10567573
